// data source = the supplement of paper PMC6555819

test system: RARa:RXR (NR concentration 270 nM, RXRa partner concentration 90 nM); assay: PBM binding z-score (relative to random genomic background probes); higher = stronger binding; sequences stand for … in GC…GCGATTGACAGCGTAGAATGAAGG
Measure Name: PBM binding z-score
Give the value as a plain number.

Completed entries (count: 5):
Monomer Sequence	Numeric Result
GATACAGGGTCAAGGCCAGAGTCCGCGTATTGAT	4.03
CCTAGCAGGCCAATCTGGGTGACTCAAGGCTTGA	0.391
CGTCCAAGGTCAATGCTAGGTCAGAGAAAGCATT	5.99
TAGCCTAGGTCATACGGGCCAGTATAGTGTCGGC	2.4
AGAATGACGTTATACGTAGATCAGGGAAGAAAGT	-0.492

Record request: PBM binding z-score value, item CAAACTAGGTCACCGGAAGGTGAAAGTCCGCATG 4.74
